Biological target: human CYP4A11 (Homo sapiens (Human))
Sequence (Q02928 5-519): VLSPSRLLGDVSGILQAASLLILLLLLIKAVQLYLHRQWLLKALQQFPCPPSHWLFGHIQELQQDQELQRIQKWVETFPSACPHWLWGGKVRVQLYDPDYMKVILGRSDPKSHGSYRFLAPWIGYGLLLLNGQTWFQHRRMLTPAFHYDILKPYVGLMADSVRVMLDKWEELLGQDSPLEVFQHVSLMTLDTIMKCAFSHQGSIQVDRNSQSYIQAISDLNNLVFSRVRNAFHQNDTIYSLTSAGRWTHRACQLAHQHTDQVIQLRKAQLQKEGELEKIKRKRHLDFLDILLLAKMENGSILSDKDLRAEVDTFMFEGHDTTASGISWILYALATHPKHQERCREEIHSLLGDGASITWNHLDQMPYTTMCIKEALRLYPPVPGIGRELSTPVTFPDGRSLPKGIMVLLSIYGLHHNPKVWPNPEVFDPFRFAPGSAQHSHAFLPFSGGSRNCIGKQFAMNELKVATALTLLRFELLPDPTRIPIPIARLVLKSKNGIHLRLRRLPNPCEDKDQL
Test: Inhibition test against 20-HETE producing enzyme CYP4A11 (luciferine derivative, luminescence)
Format: biochemical
Details: human CYP4A11, luciferine derivative, luminescence
Description: (1) Inhibition Test for Each Compound of the Present Invention Against 20-HETE Producing Enzymes (CYP4F2 and CYP4A11) […] A: Luminescence value with addition of compound B: Luminescence value without addition of compound and enzyme
pIC50: −log10 of the molar value.
parameter: pIC50

The cases that follow already have their pIC50 on record.
COCCNC(=O)CCc1cccc(COc2ccc(-c3ccn[nH]3)nc2)c1 [Example 43-5]	7.09
O=C(O)C1CC(c2ccc(CCOc3ccc(-c4ccn[nH]4)nc3)cc2)C1 (centres unmarked) [Example 71-20]	6.30
O=C(O)C1CC1c1cccc(COc2ccc(-c3ccn[nH]3)nc2)c1F (centres unmarked) [Example 70-3]	7.55
O=C(O)[C@@H]1C[C@@H]1c1ccc(CCOc2ccc(-c3ccn[nH]3)nc2)cc1 [Example 70-10-1]	6.80
CC(C)(COc1cc(CCOc2ccc(-c3ccn[nH]3)nc2)ccn1)C(=O)O [Example 71-35]	5.85
O=C(O)c1cc2n(n1)CCN(C(=O)c1cccc(COc3ccc(-c4ccn[nH]4)nc3)c1)C2 [Example 45-45]	5.77
CN(C(=O)CCc1cccc(COc2ccc(-c3ccn[nH]3)nc2)c1)S(C)(=O)=O [Example 44-6]	6.64
O=C(O)C1(OCCCCCCCOc2ccc(-c3ccn[nH]3)nc2)CCC1 [Example 72-2]	6.92
CC(C)(Oc1ccc(CCCOc2ccc(-c3ccn[nH]3)nc2)cn1)C(=O)O [Example 71-38]	5.85
CN(C)C(=O)[C@H]1C[C@](O)(c2cc(COc3ccc(-c4ccn[nH]4)nc3)ccc2F)C1 [Example 42-22]	6.57

A = O=C(O)CCNC(=O)c1cccc(COc2ccc(-c3ccn[nH]3)nc2)c1 [Example 45-1]
B = O=C(O)C1CC1c1ccc(COc2ccc(-c3ccn[nH]3)nc2)c(F)c1 (centres unmarked) [Example 71-24]
C = O=C(O)C1CC1c1ccc(CCOc2ccc(-c3ccn[nH]3)nc2)cc1 (centres unmarked) [Example 70-9]
Query: Order the records by pIC50, with each subsequent value no larger than the one before. I'd appreciate it if you listed the labels in the requested order.
Reply: B, A, C

###

Molecular target: UniProt:P78329
Sequence (P78329 5-520): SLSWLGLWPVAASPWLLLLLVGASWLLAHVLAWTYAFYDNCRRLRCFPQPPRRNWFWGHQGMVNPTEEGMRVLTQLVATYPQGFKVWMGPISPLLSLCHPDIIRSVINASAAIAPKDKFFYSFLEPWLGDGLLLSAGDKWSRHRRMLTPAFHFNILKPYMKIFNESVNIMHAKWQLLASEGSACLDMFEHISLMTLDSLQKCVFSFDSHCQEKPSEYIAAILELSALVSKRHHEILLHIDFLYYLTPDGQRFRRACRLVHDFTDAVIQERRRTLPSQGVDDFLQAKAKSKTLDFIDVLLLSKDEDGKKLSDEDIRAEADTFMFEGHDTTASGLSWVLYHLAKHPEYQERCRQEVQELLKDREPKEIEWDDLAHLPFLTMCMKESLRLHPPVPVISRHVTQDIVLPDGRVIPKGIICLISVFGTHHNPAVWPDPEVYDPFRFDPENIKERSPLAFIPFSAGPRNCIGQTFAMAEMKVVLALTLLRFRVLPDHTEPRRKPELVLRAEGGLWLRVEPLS
Experiment: Inhibition test against 20-HETE producing enzyme CYP4F2 (luciferine derivative, luminescence)
Type: biochemical
Settings: human CYP4F2, luciferine derivative, luminescence
pIC50: −log10 of the molar value.
parameter: pIC50

The cases that follow already have their pIC50 on record.
O=C(O)c1cccc(CNC(=O)c2cccc(COc3ccc(-c4ccn[nH]4)nc3)c2)c1	6.43
O=C(O)C1(OCCCCCCCOc2ccc(-c3ccn[nH]3)nc2)CCC1	7.01

1 = O=C(O)[C@@H]1CCc2ccc(COc3ccc(-c4ccn[nH]4)nc3)cc2O1
2 = CC(C)(Cc1ccc(COc2ccc(-c3ccn[nH]3)nc2)cc1)C(=O)O
Query: Could you tell me which of 1 and 2 has the lower pIC50 reading? Identify your selection by its label.
Reply: 2

###

Target: human CYP4A11 (Homo sapiens (Human))
Assay: Inhibition test against 20-HETE producing enzyme CYP4A11 (luciferine derivative, luminescence)
Assay type: biochemical
Conditions: human CYP4A11, luciferine derivative, luminescence
parameter: IC50 (µM)

I = O=C(O)[C@@H]1COc2ccc(COc3ccc(-c4ccn[nH]4)nc3)cc2C1
II = CC(C)(COc1cccc(CCOc2ccc(-c3ccn[nH]3)nc2)n1)C(=O)O
III = O=C(N[C@H]1C[C@@H](C(=O)O)C1)c1cccc(COc2ccc(-c3ccn[nH]3)nc2)c1
IV = O=C(O)C1CC1c1ccc(CCOc2ccc(-c3ccn[nH]3)nc2)c(F)c1 (single isomer, unassigned) [Example 71-17]
V = O=C(O)C1CC1c1cccc(CCOc2ccc(-c3ccn[nH]3)nc2)c1F (stereo not shown)
Query: Order the 5 compounds from highest to lowest IC50. I'd appreciate it if you listed the labels in the requested order.
Reply: III, IV, II, V, I

A = O=C(NC1(C(=O)O)CCOCC1)c1cccc(COc2ccc(-c3ccn[nH]3)nc2)c1
B = CN(CCC(C)(C)C(=O)O)C(=O)c1cccc(COc2ccc(-c3ccn[nH]3)nc2)c1
C = CC(C)(Oc1cc(CCCOc2ccc(-c3ccn[nH]3)nc2)ccn1)C(=O)O
Query: Order the records by IC50, with each subsequent value no larger than the one before. I'd appreciate it if you listed the labels in the requested order.
Reply: C, B, A

I = O=C(O)CC1CCN(C(=O)c2cccc(COc3ccc(-c4ccn[nH]4)nc3)c2)CC1
II = O=C(O)/C=C/c1cccc(CCOc2ccc(-c3ccn[nH]3)nc2)c1
III = CC(C)(COc1cc(CCCOc2ccc(-c3ccn[nH]3)nc2)ccn1)C(=O)O
Query: I would appreciate it if you could sort these 3 compounds by IC50, starting from the smallest number. I'd appreciate it if you listed the labels in the requested order.
Reply: II, I, III

Just for reference, patent US11365192B2 is where these values come from.
